# Study Conditions: human, plasma, oral, Cmax, CYP3A5 expressors (n=10); atorvastatin + clarithromycin 500 mg twice/day; median (IQR)
Quantity Measured: Cmax (ng/mL)
Return type: number; implicit unit ng/mL.

Query string: Any idea what its Cmax is? The compound is CC(C)c1c(C(=O)Nc2ccccc2)c(-c2ccccc2)c(-c2ccc(F)cc2)n1CC[C@@H]1C[C@@H](O)CC(=O)O1 [atorvastatin lactone]
Result string: 4.2
